# Tested on: Mus musculus
# method: Toxicity assessed as tail bleeding in Kunming mouse at 200 mg/kg, po after 15 mins
# Type: organism-based
# Design: dose 200 mg/kg, route oral
# experimental.conditions: in vivo, 0.25 h
Here, each record is paired with measured Time data.
Dear colleague, please return just the value in min, with no unit written.

A selection of reference data follows.
{"query.smiles": "C[C@H]1O[C@@H](c2cccc([N+](=O)[O-])c2)OC[C@H]1NC(=O)CN", "Time (min)": 2.01}
{"query.smiles": "NCC(=O)N[C@H]1CO[C@@H](c2cccc([N+](=O)[O-])c2)OC1", "Time (min)": 2}
{"query.smiles": "NCC(=O)N[C@H]1CCO[C@@H](c2ccc(Cl)cc2)OC1", "Time (min)": 2.01}
{"query.smiles": "NCC(=O)N[C@H]1CO[C@@H](c2ccc(Cl)cc2)OC1", "Time (min)": 2.01}
{"query.smiles": "Cc1ccc([C@H]2OC[C@@H](NC(=O)CN)[C@@H](C)O2)cc1", "Time (min)": 2.04}

Q. // lookup Time | system=Mus musculus | key= NCC(=O)N[C@H]1CCO[C@H](c2ccc([N+](=O)[O-])cc2)OC1
A. 2.01

Q. // lookup Time | system=Mus musculus | key= C[C@H]1O[C@@H](c2ccc([N+](=O)[O-])cc2)OC[C@H]1NC(=O)CN
A. 2.02

Q. // lookup Time | system=Mus musculus | key= NCC(=O)N[C@H]1CCO[C@@H](c2cccc([N+](=O)[O-])c2)OC1
A. 1.99

Q. // lookup Time | system=Mus musculus | key= Cc1ccc([C@H]2OC[C@@H](NC(=O)CN)CO2)cc1
A. 2

Q. // lookup Time | system=Mus musculus | key= NCC(=O)N[C@H]1CO[C@@H](c2ccc([N+](=O)[O-])cc2)OC1
A. 2.01

---

# System: Mus musculus
# method: Toxicity assessed as tail bleeding in Kunming mouse at 200 mg/kg, po after 15 mins
# Assay type: organism-based
# Design: dose 200 mg/kg, route oral
# experimental.conditions: in vivo, 0.25 h
metric: Time (min)
Dear colleague, please return just the value in min, with no unit written.

A selection of reference data follows.
{"query.smiles": "C[C@H]1O[C@@H](c2ccc(Cl)cc2)OC[C@H]1NC(=O)CN", "units.symbol": "min", "assay.value": 2.01}
{"query.smiles": "NCC(=O)N[C@H]1CCO[C@H](c2ccc(Cl)cc2)OC1", "units.symbol": "min", "assay.value": 1.99}
{"query.smiles": "NCC(=O)N[C@H]1CCO[C@@H](c2ccc([N+](=O)[O-])cc2)OC1", "units.symbol": "min", "assay.value": 2.05}
{"query.smiles": "NCC(=O)N[C@H]1CO[C@@H](c2ccccc2)OC1", "units.symbol": "min", "assay.value": 2}
{"query.smiles": "NCC(=O)N[C@H]1CCO[C@H](c2cccc([N+](=O)[O-])c2)OC1", "units.symbol": "min", "assay.value": 2}

Q. Time lookup needed for C[C@H]1O[C@@H](c2ccccc2)OC[C@H]1NC(=O)CN , thanks.
A. 2

---

Here, each record is paired with measured Time data.
# Tested on: Mus musculus
# method: Toxicity assessed as tail bleeding in Kunming mouse at 200 mg/kg, po after 5 mins
# Format: organism-based
# Parameters: dose 200 mg/kg, route oral
# experimental.conditions: in vivo
Dear colleague, please return just the value in min, with no unit written.

Q. Time lookup needed for C[C@H]1O[C@@H](c2cccc([N+](=O)[O-])c2)OC[C@H]1NC(=O)CN , thanks.
A. 2.01

Q. Time lookup needed for NCC(=O)N[C@H]1CO[C@@H](c2cccc([N+](=O)[O-])c2)OC1 , thanks.
A. 2

Q. Time lookup needed for NCC(=O)N[C@H]1CO[C@@H](c2ccc(Cl)cc2)OC1 , thanks.
A. 2.01
